assay: Down-regulation of Gli1 mRNA expression in human U87MG cells at 10 uM after 24 hrs by RT-PCR analysis relative to DMSO-treated control; assay type: functional, cell-based; conditions: U-87MG ATCC
Measured fold change (FC) of individual entries
Just the number.

Look up fold change (FC) of "CC(C)CCC[C@@H](C)[C@H]1CC[C@H]2C(=O)CCC[C@]12C" and report it.
0.9

Input "C=C1CCC=C/C1=C/C=C1\CCC[C@]2(C)[C@@H]([C@H](C)CCCC(C)C)CC[C@@H]12" , output reported fold change (FC).
1

Entry C=C1CC[C@H](O)C/C1=C/C=C1\CCC[C@]2(C)[C@@H]([C@H](C)CCCC(C)C)CC[C@@H]12 [CHOLECALCIFEROL] needs its fold change (FC) filled in; supply it.
0.7

Given the compound "CC(C)[C@@H](C)/C=C/[C@@H](C)[C@H]1CC[C@H]2[C@@H](O)CCC[C@]12C" , write its reported fold change (FC).
0.8

Given C=C1CC[C@H](O)C/C1=C/C(O)C1(O)CCC[C@]2(C)[C@@H]([C@H](C)CCCC(C)C)CC[C@@H]12 (some centres not stated) , respond with its fold change (FC).
1.1

Return value of fold change (FC) for input C=C1CC[C@H](O)C/C1=C/C=C1\CCC[C@]2(C)[C@@H]([C@H](C)/C=C/[C@H](C)C(C)C)CC[C@@H]12 [ERGOCALCIFEROL] , no commentary.
0.9

Indicate the recorded fold change (FC) value for this compound: "CC(C)CCC[C@@H](C)[C@H]1CC[C@H]2[C@@H](O)CCC[C@]12C"
0.7
